- ASSAY_OVERVIEW: Tertiary RLuc qRT-PCR qHTS assay for Zika virus inhibitors (AID 1347169); also: nearly all actives have a fitted effect of over 55% in size
- MEASUREMENT_PARAMETERS: infected Vero cells, reporter luminescence, 48-72 h; series mostly up to 45.9 µM
- Experimental: Avindra Nath, Ph.D., National Institute of Neurological Disorders and Stroke (NINDS), Bethesda, MD Radhakrishnan Padmanabhan, Ph.D., Georgetown University (GU), Washington D.C. […] For a follow-up assay, we adapted a high throughput orthogonal assay in 1536-well plate format to use the recombinant virus ZIKV-RLuc, in Vero cells. […] The luminescence signal was measured after 1-1.5 hrs exposure to substrate in ViewLux reader.
Inconclusive results are not listed. Activity calls are given as the source filed them. Calls follow the shape of the dose curve; as a rule, active = well fitted inhibition curve with a large enough effect; inconclusive = small, poorly fitted or top-dose-only effect; inactive = no such curve, though single readings can be large or run the other way. *1 amine or outer side, *2 acyl side, *3 side chain or, on linkers, in order; H or OH if unused. Where a SMILES comes first, the peptide text is derived from it. Bridges are numbered along the chain shown (N, C = ends). Roman numbers before positions name the chains, in order. [ ]: non-standard residue; d: D form. ξ: configuration not given here. Actinocin(9to1) = Cc1c2oc3c(C)ccc(C(=O)[*:1])c3nc-2c(C(=O)[*:2])c(N)c1=O; ξNMeV = CNC(C(=O)O)C(C)C; ξV = CC(C)C(N)C(=O)O; Sar = CNCC(=O)O
API: response.call in label 1 (active), label 0 (inactive)

Query: Record lookup: outcome of this test for CCOc1ccc(-c2ccc(Cn3c(CC(C)(C)C(=O)O)c(SC(C)(C)C)c4cc(OCc5ccc(C)cn5)ccc43)cc2)cn1 ?
Result: label 1

Query: Record lookup: outcome of this test for CC1C/C=C/C=C\CCCCC(O)C/C=C/C(=O)O1 (stereo not given) ?
Result: label 0

Query: Record lookup: outcome of this test for COc1cccc(-n2nc(C(=O)O)cc2-c2ccc(C3CCCCC3)c(Cl)c2)c1 ?
Result: label 1

Query: Record lookup: outcome of this test for CC(=O)c1c(C)cc(O)cc1O[C@@H]1O[C@H](CO)[C@@H](O)[C@H](O)[C@H]1O ?
Result: label 0

Query: Record lookup: outcome of this test for OC[C@H]1O[C@@H](Oc2ccc(O)c3cccc(O)c23)[C@H](O)[C@@H](O)[C@@H]1O ?
Result: label 0

Query: Record lookup: outcome of this test for Cc1c2oc3c(C)ccc(C(=O)N[C@@H]4C(=O)NC(C(C)C)C(=O)N5CCC[C@H]5C(=O)N(C)CC(=O)N(C)C(C(C)C)C(=O)O[C@@H]4C)c3nc-2c(C(=O)N[C@@H]2C(=O)NC(C(C)C)C(=O)N3CCC[C@H]3C(=O)N(C)CC(=O)N(C)C(C(C)C)C(=O)O[C@@H]2C)c(N)c1=O (stereo not given in full) (I: T[ξV]P[Sar][ξNMeV] / II: T[ξV]P[Sar][ξNMeV]; ester I:1-I:C, II:1-II:C; linker I:N-II:N via Actinocin(9to1)) ?
Result: label 1

Query: Record lookup: outcome of this test for C=C1CC23CCC4[C@@](C)(CCC[C@@]4(C)C(=O)O)C2CCC1C3 (stereo not given in full) ?
Result: label 0

Query: Record lookup: outcome of this test for CC(C)c1cc2c(c(O)c1O[C@@H]1O[C@H](CO)[C@@H](O)[C@H](O)[C@H]1O)CC1(O)CCC(O)C(C)(C)C1CC2 (stereo not given in full) ?
Result: label 0

Query: Record lookup: outcome of this test for O=S(=O)(O)c1ccc2c(N=Nc3ccc(S(=O)(=O)O)c4ccccc34)c(O)c(S(=O)(=O)O)cc2c1 ?
Result: label 0

Query: Record lookup: outcome of this test for Cc1nn(C)c(COc2ccc(N3CCN(S(=O)(=O)N(C)C)CC3)cc2)c1-c1cccc2c(CCCOc3cccc4ccccc34)c(C(=O)O)n(CCN3CCOCC3)c12 ?
Result: label 0

Query: Record lookup: outcome of this test for O=C(O)c1cc(O)c2cccc(O)c2c1O[C@@H]1O[C@H](CO)[C@@H](O)[C@H](O)[C@H]1O ?
Result: label 0

Query: Record lookup: outcome of this test for NCc1ccc(OCCCc2sc(-c3ccc4c(c3)/C(=N/Nc3nc5ccccc5s3)CCC4)nc2C(=O)O)cc1 ?
Result: label 0

Query: Record lookup: outcome of this test for CC12CCC3C(C)(C)C(O)CCC3(C)C1Cc1c(oc(C(=O)O)cc1=O)O2 (stereo not given) ?
Result: label 0

Query: Record lookup: outcome of this test for CC1(C)CC[C@]2(C(=O)O[C@@H]3O[C@H](CO)[C@@H](O)[C@H](O)[C@H]3O)CC[C@]3(C)C(=CCC4[C@@]5(C)C[C@@H](O)[C@H](O)[C@@](C)(CO)C5CC[C@]43C)C2C1 (stereo not given in full) ?
Result: label 0

Query: Record lookup: outcome of this test for O=C(/C=C/c1c(C(=O)O)[nH]c2cc(Cl)cc(Cl)c12)Nc1ccccc1 ?
Result: label 0
